B1: library; a variant is named by its letters at N, in order (parent)
chain: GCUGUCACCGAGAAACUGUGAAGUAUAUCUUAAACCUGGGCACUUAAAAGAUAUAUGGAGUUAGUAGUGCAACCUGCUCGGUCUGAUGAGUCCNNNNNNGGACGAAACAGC

variants of: B1; assay: normalized RNA/DNA level without ligand (relative to sTRSVctl = 100) (log10 (% of sTRSVctl)); HEK293T; ligand: cyclic di-GMP (c-di-GMP-II aptamer); higher = less ribozyme self-cleavage, higher mRNA level; settings: reporter: mCherry (pCS4076), ligand present: no
Exercise: for every item that follows, state its recorded normalized RNA/DNA level without ligand (log10).
Number only, please.

Per the records, this variant ( `UCGAAA` ) has normalized RNA/DNA level without ligand (log10) equal to 1.32

Per the records, this variant ( `UCAGCC` ) has normalized RNA/DNA level without ligand (log10) equal to 1.82

Per the records, this variant ( `CCUUAC` ) has normalized RNA/DNA level without ligand (log10) equal to 1.71

Per the records, this variant ( `UGAAUG` ) has normalized RNA/DNA level without ligand (log10) equal to 1.72

Per the records, this variant ( `AUAUGA` ) has normalized RNA/DNA level without ligand (log10) equal to 1.43

Per the records, this variant ( `GUCCGA` ) has normalized RNA/DNA level without ligand (log10) equal to 1.63

Per the records, this variant ( `GUAGGC` ) has normalized RNA/DNA level without ligand (log10) equal to 1.6

Per the records, this variant ( `AUGGGU` ) has normalized RNA/DNA level without ligand (log10) equal to 1.54

Per the records, this variant ( `GAGAAG` ) has normalized RNA/DNA level without ligand (log10) equal to 1.71

Per the records, this variant ( `CGAUAC` ) has normalized RNA/DNA level without ligand (log10) equal to 1.61

Per the records, this variant ( `ACGGCG` ) has normalized RNA/DNA level without ligand (log10) equal to 1.75

Per the records, this variant ( `AGCUCG` ) has normalized RNA/DNA level without ligand (log10) equal to 1.74

Per the records, this variant ( `UUUUUC` ) has normalized RNA/DNA level without ligand (log10) equal to 1.78

Per the records, this variant ( `AUUGUG` ) has normalized RNA/DNA level without ligand (log10) equal to 1.6

Per the records, this variant ( `AGCACA` ) has normalized RNA/DNA level without ligand (log10) equal to 1.58
